system: EKVX NSCLC; experiment: NCI tumour cell line growth inhibition, 48 h
# TGI annotations

compound: CC(C)(O)C1CC(=O)C(C)(C2C(O)CC3(C)C4CC=C5C(CCC(O)C5(C)C)C4(C)C(=O)CC23C)O1 (configuration not stated)
TGI: > 100 µM
--
compound: O=c1[nH]/c(=C/c2ccc(OCc3ccccc3)cn2)c(=O)[nH]/c1=C/c1cccnc1
TGI: > 75.2 µM
--
compound: O=C1c2c(ccc3c2CCCC3)CC12Cc1ccccc1C2
TGI: > 95.9 µM
--
compound: C#Cc1cccc(NC(=O)Nc2cccc(NC(=O)CCl)c2)c1
TGI: > 82.5 µM
--
compound: O=[N+]([O-])c1ccc(-c2ccc(C3=Nn4c(nnc4-c4ccc(Cl)cc4)SC3)o2)cc1
TGI: > 100 µM
--
compound: CCN(CC)CCC(CNc1c2ccc(Cl)cc2nc2ccc(OC)cc12)c1ccccc1 (configuration not stated)
TGI: 8.3 µM
--
compound: CN(C)CCCN1c2ccc3ccccc3c2Sc2cccc(Cl)c21
TGI: 13.5 µM
--
compound: COc1ccc(-c2nccn2-c2cc(OC)c(OC)c(OC)c2)cc1
TGI: > 100 µM
--
compound: O=S(=O)(CC#CCS(=O)(=O)c1ccccc1)c1ccccc1
TGI: 12.1 µM
--
compound: Cn1cnc2nc(Cl)nc(Cl)c21
TGI: 34.8 µM
--
compound: COc1ccc(N2CCN(CC(=O)N3CCN(c4nnc(-c5ccc(Cl)cc5)c(-c5ccc(Cl)cc5)n4)CC3)CC2)cc1
TGI: > 100 µM
--
compound: CC(=O)/C=C\C(=O)NNS(=O)(=O)c1ccc(C)cc1
TGI: > 100 µM
--
compound: N#Cc1c(-c2ccc(Cl)cc2)n([O-])c2ccccc2[n+]1=O
TGI: 20.5 µM
--
compound: CC(=O)OC12CCCCC1C1(CCCC1)NC2=O (configuration not stated)
TGI: > 100 µM
--
compound: NC(N)=NS(=O)(=O)c1ccc(NC(=O)c2c3ccccc3nc3ccccc23)cc1
TGI: > 100 µM
--
compound: CCCCCCCCCCCCCCCCCc1nc(C#N)c(N)o1
TGI: > 100 µM
--
compound: CC(C)(C)OC(=O)N(CCCN)CCCCN(CCCN)C(=O)OC(C)(C)C
TGI: > 100 µM
--
compound: O=C(c1ccccc1)c1cc(-c2ccccc2)c(-c2ccccc2)[nH]c(=O)c1=O
TGI: > 100 µM
--
compound: CCCCc1ccc(C(N)=O)nc1
TGI: > 100 µM
--
compound: CC(C)(C)OC(=O)N1CC(COS(C)(=O)=O)c2ccc(O)cc21 (configuration not stated)
TGI: 4.59 µM
--
compound: O=C(CN1C(=O)c2ccccc2C1=O)NC1(C(=O)O)CCCC1
TGI: > 100 µM
--
compound: CCOc1c(OC)cc(CNNc2nccs2)cc1OC
TGI: > 100 µM
--
compound: C/C(=C1/N=C(c2ccccc2)OC1=O)c1cccs1
TGI: > 100 µM
--
compound: CC1(C)CC(=O)C2=C(C1)OC1=C(CC(C)(C)CC1=O)C2c1ccccc1Cl (configuration not stated)
TGI: > 100 µM
--
compound: COc1cc(C2C(C(=O)Nc3ccc(Cl)c(Cl)c3)=C(C)NC(C)=C2C(=O)Nc2ccc(Cl)c(Cl)c2)ccc1O
TGI: 28.1 µM
--
compound: CCOC(=O)C(Cc1ccc(N(CCCl)CCCl)cc1)NC(=O)C(CC(C)C)NC(C)=O (configuration not stated)
TGI: 19.7 µM
--
compound: Cc1ccc(S(=O)(=O)NC(CCCCN)C(=O)CCl)cc1 (configuration not stated)
TGI: 93.4 µM
